System: Col2
Experiment: In vitro cytotoxicity against human Col2 (colon cancer) cell line.
Assay type: functional, cell-based
Task for the reader: assign each of the following compounds its reported pIC50.
Numbers only, as −log10 of the molar value.

Some solved entries appear below for comparison.
* Cc1ccc(NC2=C(Cl)C(=O)c3ncncc3C2=O)cc1C | 5.43
* Cc1ccc(/N=C2/C(=O)c3cncnc3C(O)=C2Cl)c(Br)c1 | 5.52
* O=C1C(Nc2ccc3c(c2)OCO3)=C(Cl)C(=O)c2ncncc21 | 6.06

# batch size: 2; output pIC50 per entry
1. O=C1C(Nc2ccc(Br)cc2)=C(Cl)C(=O)c2ncncc21
2. O=C1C(Nc2ccccc2Br)=C(Cl)C(=O)c2ncncc21

5.52
5.47

Give measured pIC50 for every item shown.
1. Cc1ccc(NC2=C(Cl)C(=O)c3ncncc3C2=O)cc1
2. Cc1cccc(NC2=C(Cl)C(=O)c3ncncc3C2=O)c1

1: 6.06; 2: 5.25

----------
Molecular target: DNA topoisomerase 1 (Homo sapiens)
Experiment: In vitro inhibition of human DNA topoisomerase I activity.
Set-up: concentration or dose not given beside the values
Details: concentration not given here
Assignment: determine reported inhibition for the given compounds.
Numbers only, in %.

# count of solved cases: 2
* CCc1ccc(NC2=C(Cl)C(=O)c3ncncc3C2=O)cc1 | 88
* O=C1C(Nc2ccccc2Br)=C(Cl)C(=O)c2ncncc21 | 89

Return inhibition for the following compound: CCc1ccccc1/N=C1/C(=O)c2cncnc2C(O)=C1Cl 20

Reference for the values: ChEMBL document CHEMBL1147454
